Data origin, for the record: patent US10077232B2

Listed here: items and their measured pKa.
experiment: TNS assay, apparent pKa of cationic lipids in 1:57 SNALP

# MOLECULE, RECORDED_MEASUREMENT
records = [
    ("CCCCCC1CC1CC1CC1CC1CC1CCCCCOCC(CN(C)C)OCCCCCC1CC1CC1CC1CC1CC1CCCCC (centres unmarked) [CP-γ-DLenDMA]", "~5.8"),
    ("CCC1CC1CC1CC1CC1CC1CCCCCCCCOCC(CN(C)C)OCCCCCCCCC1CC1CC1CC1CC1CC1CC (centres unmarked) [CP-DLenDMA]", "~5.85"),
    ("CCCCC/C=C\\C/C=C\\C/C=C\\CCCCCC(CCCCC/C=C\\C/C=C\\C/C=C\\CCCCC)OC(=O)CCCN(C)C [g-Len-MC3]", "~6.1"),
    ("CCCCCC1CC1CC1CC1CC1CC1CCCCCC(CCCCCC1CC1CC1CC1CC1CC1CCCCC)OC(=O)CCCN(C)C (centres unmarked) [CP-γ-LenMC3]", "~6"),
    ("CCCCCC1CC1CC1CC1CCCCCCCCOCC(CN(C)C)OCCCCCCCCC1CC1CC1CC1CCCCC (centres unmarked) [CP-DLinDMA]", "~5.8"),
]

Query block: For the molecule shown here, CCCCCCCCC1CC1CCCCCCCCOCC(CN(C)C)OCCCCCCCCC1CC1CCCCCCCC (centres unmarked) [CP-DODMA] , give the reported pKa.
Result block: ~5.8

Query block: For the molecule shown here, CCCCCCCCCCCC1CC1CCCCCOCC(CN(C)C)OCCCCCC1CC1CCCCCCCCCCC (centres unmarked) [CP-DPetroDMA] , give the reported pKa.
Result block: ~5.95

Query block: For the molecule shown here, CCC1CC1CC1CC1CC1CC1CCCCCCCCC(CCCCCCCCC1CC1CC1CC1CC1CC1CC)OC(=O)CCCN(C)C (centres unmarked) [CP-LenMC3] , give the reported pKa.
Result block: ~6.1
